FYI, the data here is from PubChem BioAssay.

protocolNotes: inhibition of 3D7 malaria parasite growth – strain 3D7 (AID 2306);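 further: 0% = DMSO wells and 100% = chloroquine plus artemisinin control wells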
conditionInfo: P. falciparum 3D7 erythrocytic growth, LDH absorbance, 72 h; at 2 µM; stronger effect = higher value
The source made the active and inactive calls. How the calls were made is not given here.
measureName: growth inhibition

Example cases with answers are listed next.
# molecule, measureName, result
data = [
    ("COc1ccc(C(=O)[C@H]2C[C@@H]2CN2CC=C(c3c[nH]c4ccccc34)CC2)cc1", "growth inhibition", "95% (active)"),
    ("Cc1ccc(CC(C)NCC(O)c2cccc(Br)c2)cc1 (centres undefined)", "growth inhibition", "99% (active)"),
    ("CCCCCCCCNCC(O)c1ccc(Cl)c(Cl)c1 (centres undefined)", "growth inhibition", "99% (active)"),
    ("CNC(=O)c1ccc2[nH]cc(C3CCN(CC4CCC(NC(=O)/C=C/c5ccccc5Cl)CC4)CC3)c2c1 (centres undefined)", "growth inhibition", "100% (active)"),
    ("O=C(c1cccs1)N(Cc1cccc(-c2ccc(CNC3CCCC3)cc2)c1)C1CCN(Cc2ccccc2)CC1", "growth inhibition", "90% (active)"),
]

Provide each entry's growth inhibition from the list below.
1. CCOC(=O)c1c(CN2CCN(C)CC2)n(Cc2ccccc2)c2cc(Br)c(O)cc12
2. CN1CC[C@H](N(Cc2ccccc2F)c2ccc(C#N)c(Cl)c2)C1

["100% (active)", "88% (active)"]

Provide each entry's growth inhibition from the list below.
1. CN1CCC(N(C)c2nccc(N3CCN(Cc4cncn4Cc4ccccc4)CC3)n2)CC1
2. CN1CC=C(c2c[nH]c3ccc(Sc4ccccc4)cc23)CC1
3. O=c1c2ccccc2nc(C=Cc2ccc([N+](=O)[O-])cc2)n1-c1ccccn1
4. CC[C@H]1CN2CC[C@@H]1C[C@H]2[C@H](O)c1cc(N2CCC(CO)CC2)nc2ccc(OC)cc12
5. Cc1[nH]c2ccccc2c1C1=CCN(CCCCC2(C)C(=O)Nc3cccc(F)c32)CC1 (centres undefined)
6. O=C(/C=C/c1ccc(Cl)c(Cl)c1)Nc1cccc(CN2CCC(c3c[nH]c4ccc(O)cc34)CC2)c1
7. Cc1ccc(C2(O)C[C@H]3CC[C@@H](C2)N3C)cc1 (some centres undefined)
8. O=C1Nc2cccc3c2C1(CCCCN1CC=C(c2c[nH]c4ncccc24)CC1)CCC3 (centres undefined)

1. 100% (active)
2. 98% (active)
3. 98% (active)
4. 99% (active)
5. 95% (active)
6. 101% (active)
7. 92% (active)
8. 92% (active)

Provide each entry's growth inhibition from the list below.
1. COc1ccc(CC(C)NCC(O)c2cccc(Br)c2)cc1 (centres undefined)
2. COc1ccc(F)cc1-c1csc(N(c2ccc(F)cc2)C2CCNCC2)n1
3. CC[C@H]1CN2CC[C@H]1C[C@H]2[C@H](O)c1cc(-c2ccc3ccccc3c2)nc2ccc(OC)cc12
4. Oc1cc2c(cc1CN1CCN(Cc3ccccc3)CC1)CCC2
5. CN1CC=C(c2c[nH]c3ccc(Br)cc23)CC1
6. COC(=O)/C=C/c1ccc(CC(C)NCC(O)c2cccc(Br)c2)cc1 (centres undefined)

1. 99% (active)
2. 94% (active)
3. 99% (active)
4. 98% (active)
5. 88% (active)
6. 97% (active)

###

targetOfAssay: L-lactate dehydrogenase (Plasmodium falciparum (isolate CDC / Honduras)) (UniProt Q27743)
Sequence (Q27743 whole entry, looked up): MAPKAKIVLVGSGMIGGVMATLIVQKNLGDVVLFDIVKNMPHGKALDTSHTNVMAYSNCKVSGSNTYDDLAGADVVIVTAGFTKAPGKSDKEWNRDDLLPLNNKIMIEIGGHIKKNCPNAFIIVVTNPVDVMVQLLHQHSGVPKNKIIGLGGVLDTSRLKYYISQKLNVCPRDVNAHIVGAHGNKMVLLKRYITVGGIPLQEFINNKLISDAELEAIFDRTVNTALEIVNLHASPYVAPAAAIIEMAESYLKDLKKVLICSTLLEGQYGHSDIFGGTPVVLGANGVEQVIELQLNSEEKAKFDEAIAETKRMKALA
protocolNotes: PfLDH activity inhibition – cell lysate, 3D7 strain, counter-screen for P. falciparum growth inhibition project (AID 2304);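 further: 0% = vehicle and 100% = reference inhibitor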
conditionInfo: P. falciparum 3D7 crude extract, LDH APAD/NBT absorbance; at 2 µM; stronger effect = higher value
Field: inhibition. Provide a value for each of the compounds that follow.
Numbers only, in %.

Provide each entry's inhibition from the list below.
1. COC(=O)c1ccc(CC(C)NCC(O)c2cccc(Cl)c2Cl)cc1 (configuration not stated)
2. COCCNCc1ccc(-c2cccc(CN(C(=O)CCC3CCCC3)C3CCN(Cc4ccccc4)CC3)c2)cc1
3. COc1cccc(C(=O)C2CC2CN2CC=C(c3c(C)[nH]c4ccccc34)CC2)c1 (configuration not stated)
4. Cc1[nH]c2cc(F)ccc2c1C1=CCN(CCCCC2(C)C(=O)Nc3c(F)cccc32)CC1 (configuration not stated)
5. CC(Cc1ccc(NC(=O)CCNCc2ccccc2)cc1)NCCc1cccc(Cl)c1 (configuration not stated)
6. O=C(NC1CCC(CN2CCC(c3c[nH]c4ccccc34)CC2)CC1)c1csc(-c2cccc(Cl)c2Cl)n1 (configuration not stated)

-6
-2
-8
-7
3
-3

Provide each entry's inhibition from the list below.
1. CC(C)CNCc1cccc(-c2cccc(CN(C(=O)Nc3ccccc3)C3CCN(Cc4ccccc4)CC3)c2)c1
2. COc1ccc(C2CNCc3c2cc(OC)c(OC)c3Cl)cc1 (configuration not stated)
3. CCCc1cc([C@@H](O)[C@@H]2C[C@@H]3CCN2C[C@@H]3CC)c2ccccc2n1
4. O=C(Cc1c(-c2ccccc2)[nH]c2ccccc12)NC1CCC(CN2CCC(c3c[nH]c4ccccc34)CC2)CC1 (configuration not stated)
5. C=C[C@H]1CN2CC[C@H]1C[C@H]2[C@H](O)c1cc(/C=C/c2ccc(F)cc2)nc2ccc(OC)cc12

1. 3
2. 2
3. 2
4. 1
5. 4

###

protocolNotes: sensitizers of A549 cells to miR-34 induction, primary screen, imaging, A549 dox-inducible miR-34, nuclei and caspase counts (AID 1347080)
conditionInfo: A549 miR-34 inducible, Hoechst nuclei count, 48 h; measured here: total cells with miR-34 induction; stronger effect = lower value
measureName: cell count
One number for each entry.

Example cases with answers are listed next.
# molecule, measureName, numericReadout
records = [
    ("C=CCN1C[C@H](C)N([C@H](c2ccc(C(=O)N(CC)CC)cc2)c2cccc(O)c2)C[C@H]1C", "cell count", 8160),
    ("CC(N)C(=O)OC(C)(C)Cc1ccc(Cl)cc1 (stereo unspecified)", "cell count", 10500),
    ("c1ccc(C2CNCc3ccccc32)cc1 (stereo unspecified)", "cell count", 8070),
    ("N[C@@H](CC(=O)N1CCn2c(nnc2C(F)(F)F)C1)Cc1cc(F)c(F)cc1F", "cell count", 11900),
    ("CC(C)CC(NP(=O)(O)OC1OC(C)C(O)C(O)C1O)C(=O)NC(Cc1c[nH]c2ccccc12)C(=O)O (stereo unspecified)", "cell count", 9030),
]

Provide each entry's cell count from the list below.
1. CCCN1CCC[C@@H](c2cccc(O)c2)C1
2. COC1=C[C@@H]2C3=C([C@@H]2C1=O)[C@@H](NC(C)=O)CCc1cc(OC)c(OC)c(OC)c13
3. CN1CC[C@@]2(C)c3cc(O)ccc3N(C)[C@H]12
4. C[C@]12CC3SC3C[C@@H]1CC[C@@H]1[C@@H]2CC[C@]2(C)[C@@H](O)CC[C@@H]12 (stereo partly specified)
5. C[C@H]1O[C@@H](OC2CC[C@]3(C=O)[C@H]4CC[C@]5(C)[C@@H](C6=CC(=O)OC6)CC[C@]5(O)[C@@H]4CC[C@]3(O)C2)C[C@H](O)[C@@H]1O (stereo partly specified)
6. Clc1cccc(SC2CCNCC2)n1

1: 9850; 2: 9450; 3: 8570; 4: 9130; 5: 1040; 6: 8450

###

protocolNotes: polyglutamine-triggered caspase-3 activation inhibitors, cell-based (AID 1583)
conditionInfo: polyglutamine-induced caspase-3 activation, cell assay; stronger effect = higher value; concentration not given here
Decide by inhibition: equal to or exceeding -10% means 1 (yes), less means 0 (no).

# compound, groupLabel
data = [
    ("Clc1ccc(COC(Cn2ccnc2)c2ccc(Cl)cc2Cl)cc1 (stereo unspecified)", "1 (yes)"),
]

Decide: is the reported value of inhibition for COc1ccc2c(c1OC)C(=O)O[C@H]2[C@H]1c2cc3c(cc2CCN1C)OCO3 equal to or greater than -10%?
1 (yes)

Would you kindly repeat that for CC(=O)C1=C(O)C2C3c4c[nH]c5cccc(c45)CC3C(C)(C)N2C1=O (stereo unspecified) ?
0 (no)

Would you kindly repeat that for O=P1(N(CCCl)CCCl)NCCCO1 (stereo unspecified) ?
0 (no)

Would you kindly repeat that for C=C[C@H]1CN2CC[C@H]1C[C@@H]2[C@@H](OC(=O)OCC)c1ccnc2ccc(OC)cc12 ?
1 (yes)

Would you kindly repeat that for NCCc1c[nH]c2ccccc12 ?
1 (yes)

Would you kindly repeat that for Clc1ccc(CSC(Cn2ccnc2)c2ccc(Cl)cc2Cl)cc1 (stereo unspecified) ?
1 (yes)

Would you kindly repeat that for COc1ccc2c3c([nH]c2c1)C(C)=NCC3 ?
0 (no)

Would you kindly repeat that for O=c1ccc2cc(O[C@H]3O[C@H](CO)[C@@H](O)[C@H](O)[C@H]3O)c(O)cc2o1 ?
0 (no)

Would you kindly repeat that for O=C(O)CCCc1ccc(N(CCCl)CCCl)cc1 ?
1 (yes)

Would you kindly repeat that for CN1CC(CNC(=O)OCc2ccccc2)CC2c3cccc4c3c(cn4C)CC21 (stereo unspecified) ?
0 (no)
